Tested on: A498 renal
PROTOCOL_DETAILS: NCI-60 one-dose screen, 48 h (100 = growth as untreated, 0 = no growth, -100 = all killed)
CONDITION_CONTEXT: 10 µM unless noted
About 83,000 compounds went through this panel and 20% of them were active in at least one assay; those are over-represented in the sample as a whole.
The following ranges of growth define the classes used here: Low (below 10%), Mid (10% to below 70%), High (70% or more)

Cc1ccc(-n2cc(/C=N/NC(=O)c3ccncc3)c(-c3ccc(S(C)(=O)=O)cc3)n2)cc1 ... High
CC(C)(C)c1ccc(CC(=O)Nc2sc3c(c2C(N)=O)CCC(=O)C3)cc1 ... Mid

Prompt line: Class label required: CCCCCc1ccc(S(=O)(=O)Nc2cccc(-c3csc(NC(=O)CNCCN(C)C)n3)c2)cc1
Response line: High

Prompt line: Bin? Nc1cc(F)ccc1NC(=O)c1ccc(NC(=O)C/C=C/c2cccnc2)cc1
Response line: Mid

Prompt line: Lab log: COc1ccc(C(=O)c2c(N)c(C#N)cn2-c2ccccc2OC)cc1 — assign growth category
Response line: Low

Prompt line: In plain terms, what class is CCCn1cnc2c(c1=N)C(c1ccc(OC)cc1)c1sc3c(C)cccc3c1O2 (stereo not drawn) ?
Response line: Low

Prompt line: Sort C#CCn1cccc1CNc1ccc(OC)cc1 into one of the categories.
Response line: Mid

* * *

Test system: COLO 205 colon
PROTOCOL_DETAILS: NCI-60 one-dose screen, 48 h
CONDITION_CONTEXT: 10 µM unless noted
Compounds without any hit were thinned out: in the full panel of roughly 83,000, 20% have a hit. Activity calls are given as the source filed them. The calls were made as follows: active = growth percent below 10; inactive = the rest.
Response enum: active, inactive

See these solved cases before continuing.
O=[N+]([O-])c1cc(/C=N/Nc2nc(N/N=C/c3ccc(Cl)c([N+](=O)[O-])c3)nc(N3CCCCC3)n2)ccc1Cl ... inactive
NC(N)=Nc1ccc(Oc2cccc(Nc3ccc(Cl)c(C(F)(F)F)c3)c2)cn1 ... active

Okay, next one:
Prompt line: Please let me know the test result on file for CNC(=O)c1cc(Oc2ccc3nc(NC(=O)c4cc(N5CCOCC5)cc(C(F)(F)F)c4)sc3c2)ccn1 .
Response line: inactive

* * *

Tested on: SNB-19 CNS
PROTOCOL_DETAILS: NCI-60 one-dose screen, 48 h
CONDITION_CONTEXT: 10 µM unless noted
This is part of a sample that, as a whole, favours compounds with a hit. Of some 83,000 tested, about 20% had one in any assay. Activity calls are given as the source filed them. The calls were made as follows: active = growth percent below 10; inactive = the rest.
Lab note: assign the record to one of active, inactive

CN1CCN(Cc2ccc(NC(=O)c3cncc(C#Cc4cnc5ccc(OCC6(C)COC6)nn45)c3)cc2C(F)(F)F)CC1 ... active
N#Cc1cccc(NC(=O)c2cc(-c3ccc(F)cc3F)ccc2O)c1 ... inactive
COc1cccc2cc(-c3cc4ccccc4[nH]3)/c(=N\NC(=O)c3ccc(Cl)cc3)oc12 ... inactive
COc1cc(OC)c(/C=C/S(=O)(=O)Cc2ccc(OC)c(NCC(=O)NO)c2)c(OC)c1 ... inactive

Shift focus to the following entry.
Prompt line: What outcome does the record of this test show for C#CCNC1CCC(c2csc(C#C)n2)=C1C (stereo not given) ?
Response line: inactive

* * *

Test system: OVCAR-8 ovarian
PROTOCOL_DETAILS: NCI-60 one-dose screen, 48 h (100 = growth as untreated, 0 = no growth, -100 = all killed)
CONDITION_CONTEXT: 10 µM unless noted
Experimental: Growth inhibition of the OVCAR-8 human tumor cell line is measured as a screen for anti-cancer activity. Cells are grown in 96 well plates and exposed to the test compound for 48 hours. Compounds are tested at a single concentration, which is 10^-5 M for most compounds. The reported endpoint is percent growth (GI% or GIPRCNT), where numbers from 0 - 100% represent growth inhibition, and numbers from -100% - 0 represent cell death. For example, a value of 40 represents 60% growth inhibition. […]
About 83,000 compounds went through this panel and 20% of them were active in at least one assay; those are over-represented in the sample as a whole.
Give criterion met when the value for growth is at least 20%. Give criterion not met when it is less.

A selection of reference data follows.
CCCC(=O)NC(c1cccnc1)c1cc(C(C)(C)C)c2cccnc2c1O (stereo not given) ... criterion not met
Cc1ccc(-c2cc3nc(C(Cl)Cl)nc(C)n3n2)cc1 ... criterion met

Prompt line: Determine whether measured growth meets or exceeds 20% for O=C(NNc1nc2cc(F)c(F)cc2n2cccc12)c1cnccn1
Response line: criterion not met

Prompt line: Given the entry COc1cc2nc(Cl)nc(Nc3cccc(C4=Nc5c(N)nc(N)nc5NC(c5ccc(F)cc5)C4)c3)c2cc1OC (stereo not given) , answer whether its growth meets or surpasses 20%.
Response line: criterion met

Prompt line: Hello, I need to know if Nc1nc(-c2cccc([N+](=O)[O-])c2)c(N=Nc2ccc([N+](=O)[O-])cc2Cl)s1 has measured growth not below 20%. Thanks!
Response line: criterion not met
